B1: MFF (parent)
chain: YTEGISQRMRVPEKLKVAPPNADL

variants of: B1; assay: protein stability index of a GFP-peptide fusion (GPS, HEK-293T) (PSI 1-6); higher = more stable; conditions: c terminus: a fixed tail appended;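 also: lentivirally expressed fusions sorted by FACS into six bins by GFP to DsRed ratio, PSI derived from sequencing read proportions per bin multiplied by bin number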
experimental readout: protein stability index
Please give the numeric answer without any surrounding text.

Q) Request the reported protein stability index associated with `N21V`
A) 3.09

Q) Request the reported protein stability index associated with `K16C`
A) 2.81

Q) Request the reported protein stability index associated with `T2N`
A) 3.69

Q) Request the reported protein stability index associated with `M9C`
A) 2.49

Q) Request the reported protein stability index associated with `I5A`
A) 4.19

Q) Request the reported protein stability index associated with `K16S`
A) 3.62

Q) Request the reported protein stability index associated with `N21M`
A) 2.67

Q) Request the reported protein stability index associated with `R10H`
A) 2.52

Q) Request the reported protein stability index associated with `K16T`
A) 3.16
